biological target: neuraminidase (NA) of A/PR/8/34 (H1N1) (Influenza A virus, UniProt P03468); assay: biochemical; details: read-out: IC50, NA inhibition test, A/PR/8/34 (H1N1)
Sequence (P03468 whole entry, looked up): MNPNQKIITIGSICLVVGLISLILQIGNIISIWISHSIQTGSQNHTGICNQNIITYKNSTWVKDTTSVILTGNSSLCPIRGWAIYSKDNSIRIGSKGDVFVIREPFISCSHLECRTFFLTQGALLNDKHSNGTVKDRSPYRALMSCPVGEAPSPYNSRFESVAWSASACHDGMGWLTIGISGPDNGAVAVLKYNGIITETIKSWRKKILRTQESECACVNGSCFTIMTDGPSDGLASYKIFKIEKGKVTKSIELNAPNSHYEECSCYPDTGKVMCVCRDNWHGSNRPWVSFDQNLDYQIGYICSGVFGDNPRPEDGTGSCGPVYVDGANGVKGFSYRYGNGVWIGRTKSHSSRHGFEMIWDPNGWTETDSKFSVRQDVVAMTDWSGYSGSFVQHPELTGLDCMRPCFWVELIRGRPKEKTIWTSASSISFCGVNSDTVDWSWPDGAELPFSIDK
pIC50: −log10 of the molar value.
READOUT_LABEL: pIC50

Given item C=C(C(=O)O)[C@H]1CC[C@H](C)[C@@H]2CC(=O)C(C)=C2C1 (stereo in doubt) , the value recorded as its pIC50 is < 4.00

###

system: A/Minfang/151/2000 (wild-type H3N2); experiment: microbe, parasite or virus in culture; format: cell-based; conditions: Influenza A virus, H3N2, MDCK, read-out: IC50, CPE reduction, A/Minfang/151/2000 (H3N2), Drug administration after virus inoculation
In this section, each of the compounds is paired with its reported IC50.

The cases that follow already have their IC50 on record.
O=c1cc(-c2ccc(O)c(O)c2)oc2cc(O)cc(O)c12; > 100 µM
COc1ccc(-c2cc(=O)c3c(O)cc(O)cc3o2)cc1; > 100 µM
Cc1cc(O)c2c(c1)C(=O)c1cc(O)cc(O)c1C2=O; > 100 µM
O=c1cc(-c2ccc(O)cc2)oc2cc(O)cc(O)c12; > 100 µM

// below: IC50 requested for another compound
For record NC(=O)c1ncn([C@@H]2O[C@H](CO)[C@@H](O)[C@H]2O)n1 [Ribavirin, ribavirin, reference compound] the listed IC50 is 22.5 µM
